Target: protein kinase A, catalytic subunit
Test: cell-based or functional assay
Where no end group is shown, it is not given here. Side-chain parts run from the residue outwards. [ ]: non-standard residue; d: D form. The star is where a group is joined. X1 = 5‑aminoethylsulfonamide isoquinoline, O=S(=O)(NCCN*)c1cccc2cnccc12; hLeu = CC(C)CC[C@H](N)C(=O)O; Nle = CCCC[C@H](N)C(=O)O; Orn = NCCC[C@H](N)C(=O)O; Dab = NCC[C@H](N)C(=O)O
QUANTITY_NAME: % inhibition of kinase activity at 1 µM; PKA-kinase Assay 1 (%)
State the answer as a number, implicitly in %.

Please list % inhibition of kinase activity at 1 µM; PKA-kinase Assay 1 recorded for the binder RPR[Orn]E(X1)[Dab][hLeu] (not fully specified (C-terminus)) [TY-60020-10]
92

Please list % inhibition of kinase activity at 1 µM; PKA-kinase Assay 1 recorded for the binder RPR[Nle]E([Gly-X1])[Dab]F (not fully specified (C-terminus)) [TY-60020-57]
95

Please list % inhibition of kinase activity at 1 µM; PKA-kinase Assay 1 recorded for the binder RPR[Orn]E(X1)[Dab]F (not fully specified (C-terminus)) [TY-60020-9]
96
